- Test system: RARb homodimer (NR concentration 270 nM)
- experimental.details: PBM binding z-score (relative to random genomic background probes); higher = stronger binding; sequences stand for … in GC…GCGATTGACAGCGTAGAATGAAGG
Attribute: PBM binding z-score

polymer.sequence: AGAATGAGGTTATACGTAGGTCAGGGAAGAAAGT
PBM binding z-score: 3.18
--
polymer.sequence: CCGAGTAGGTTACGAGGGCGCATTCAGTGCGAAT
PBM binding z-score: 0.436
--
polymer.sequence: TCGAATAGGTTACGGGGGCATTCAGGGATGAAGA
PBM binding z-score: 2.78
--
polymer.sequence: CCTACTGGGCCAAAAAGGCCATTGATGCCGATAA
PBM binding z-score: 0.855
--
polymer.sequence: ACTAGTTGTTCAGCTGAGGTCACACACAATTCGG
PBM binding z-score: 4.34
--
polymer.sequence: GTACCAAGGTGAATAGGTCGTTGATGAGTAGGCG
PBM binding z-score: 1.89
--
polymer.sequence: ATCGAAAGGTCGTGAGGTGACTATACAGAAAGGC
PBM binding z-score: 3.07
--
polymer.sequence: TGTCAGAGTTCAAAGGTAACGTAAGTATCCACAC
PBM binding z-score: 3.41
--
polymer.sequence: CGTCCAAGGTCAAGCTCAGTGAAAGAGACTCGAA
PBM binding z-score: 3.96
--
polymer.sequence: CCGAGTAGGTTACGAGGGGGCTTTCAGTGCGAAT
PBM binding z-score: 0.961
--
polymer.sequence: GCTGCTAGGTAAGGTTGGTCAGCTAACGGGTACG
PBM binding z-score: 0.738
--
polymer.sequence: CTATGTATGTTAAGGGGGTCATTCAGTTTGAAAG
PBM binding z-score: 3.92
--
polymer.sequence: TAGCCTAGGTCAGATCGGGCCAGTCTACGCTATA
PBM binding z-score: 2.16
--
polymer.sequence: CCGAGTAGGTTACGAGGAGGCATTCAGTGCGAAT
PBM binding z-score: -0.00242
--
polymer.sequence: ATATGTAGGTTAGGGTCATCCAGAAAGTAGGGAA
PBM binding z-score: 3.38
--
polymer.sequence: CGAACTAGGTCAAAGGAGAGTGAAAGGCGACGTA
PBM binding z-score: 2.43
--
polymer.sequence: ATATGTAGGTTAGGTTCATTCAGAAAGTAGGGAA
PBM binding z-score: 1.29
--
polymer.sequence: AGCGAAAGGTCGAAGGTGAGTATACCCACCCGAA
PBM binding z-score: 2.44
--
polymer.sequence: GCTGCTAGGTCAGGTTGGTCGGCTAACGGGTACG
PBM binding z-score: 2.31
--
polymer.sequence: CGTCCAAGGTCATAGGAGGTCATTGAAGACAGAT
PBM binding z-score: 5.6
--
polymer.sequence: ATACCAAGGTTATCGTGAGGTCGTTGATACTAAC
PBM binding z-score: 2.36
--
polymer.sequence: TAGCCTAGGTCATGCGGGCCAGCATAGTGTCGGC
PBM binding z-score: 2.9
--
polymer.sequence: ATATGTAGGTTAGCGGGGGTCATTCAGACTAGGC
PBM binding z-score: 4.17
--
polymer.sequence: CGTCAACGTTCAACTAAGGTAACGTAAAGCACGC
PBM binding z-score: 0.8
--
polymer.sequence: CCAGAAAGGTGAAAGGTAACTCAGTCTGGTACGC
PBM binding z-score: 1.92
--
polymer.sequence: TCGATTAGGTTACGGGGGCATTCAGGGATGAAGA
PBM binding z-score: 2.92
